Cited source for all entries: patent US20190153078A1

Target: C. difficile toxin B from strain VPI10463 (ATCC 43255), toxinotype 0 (Clostridium difficile, UniProt P18177 2-2366)
Sequence (P18177 2-2366 limits assumed): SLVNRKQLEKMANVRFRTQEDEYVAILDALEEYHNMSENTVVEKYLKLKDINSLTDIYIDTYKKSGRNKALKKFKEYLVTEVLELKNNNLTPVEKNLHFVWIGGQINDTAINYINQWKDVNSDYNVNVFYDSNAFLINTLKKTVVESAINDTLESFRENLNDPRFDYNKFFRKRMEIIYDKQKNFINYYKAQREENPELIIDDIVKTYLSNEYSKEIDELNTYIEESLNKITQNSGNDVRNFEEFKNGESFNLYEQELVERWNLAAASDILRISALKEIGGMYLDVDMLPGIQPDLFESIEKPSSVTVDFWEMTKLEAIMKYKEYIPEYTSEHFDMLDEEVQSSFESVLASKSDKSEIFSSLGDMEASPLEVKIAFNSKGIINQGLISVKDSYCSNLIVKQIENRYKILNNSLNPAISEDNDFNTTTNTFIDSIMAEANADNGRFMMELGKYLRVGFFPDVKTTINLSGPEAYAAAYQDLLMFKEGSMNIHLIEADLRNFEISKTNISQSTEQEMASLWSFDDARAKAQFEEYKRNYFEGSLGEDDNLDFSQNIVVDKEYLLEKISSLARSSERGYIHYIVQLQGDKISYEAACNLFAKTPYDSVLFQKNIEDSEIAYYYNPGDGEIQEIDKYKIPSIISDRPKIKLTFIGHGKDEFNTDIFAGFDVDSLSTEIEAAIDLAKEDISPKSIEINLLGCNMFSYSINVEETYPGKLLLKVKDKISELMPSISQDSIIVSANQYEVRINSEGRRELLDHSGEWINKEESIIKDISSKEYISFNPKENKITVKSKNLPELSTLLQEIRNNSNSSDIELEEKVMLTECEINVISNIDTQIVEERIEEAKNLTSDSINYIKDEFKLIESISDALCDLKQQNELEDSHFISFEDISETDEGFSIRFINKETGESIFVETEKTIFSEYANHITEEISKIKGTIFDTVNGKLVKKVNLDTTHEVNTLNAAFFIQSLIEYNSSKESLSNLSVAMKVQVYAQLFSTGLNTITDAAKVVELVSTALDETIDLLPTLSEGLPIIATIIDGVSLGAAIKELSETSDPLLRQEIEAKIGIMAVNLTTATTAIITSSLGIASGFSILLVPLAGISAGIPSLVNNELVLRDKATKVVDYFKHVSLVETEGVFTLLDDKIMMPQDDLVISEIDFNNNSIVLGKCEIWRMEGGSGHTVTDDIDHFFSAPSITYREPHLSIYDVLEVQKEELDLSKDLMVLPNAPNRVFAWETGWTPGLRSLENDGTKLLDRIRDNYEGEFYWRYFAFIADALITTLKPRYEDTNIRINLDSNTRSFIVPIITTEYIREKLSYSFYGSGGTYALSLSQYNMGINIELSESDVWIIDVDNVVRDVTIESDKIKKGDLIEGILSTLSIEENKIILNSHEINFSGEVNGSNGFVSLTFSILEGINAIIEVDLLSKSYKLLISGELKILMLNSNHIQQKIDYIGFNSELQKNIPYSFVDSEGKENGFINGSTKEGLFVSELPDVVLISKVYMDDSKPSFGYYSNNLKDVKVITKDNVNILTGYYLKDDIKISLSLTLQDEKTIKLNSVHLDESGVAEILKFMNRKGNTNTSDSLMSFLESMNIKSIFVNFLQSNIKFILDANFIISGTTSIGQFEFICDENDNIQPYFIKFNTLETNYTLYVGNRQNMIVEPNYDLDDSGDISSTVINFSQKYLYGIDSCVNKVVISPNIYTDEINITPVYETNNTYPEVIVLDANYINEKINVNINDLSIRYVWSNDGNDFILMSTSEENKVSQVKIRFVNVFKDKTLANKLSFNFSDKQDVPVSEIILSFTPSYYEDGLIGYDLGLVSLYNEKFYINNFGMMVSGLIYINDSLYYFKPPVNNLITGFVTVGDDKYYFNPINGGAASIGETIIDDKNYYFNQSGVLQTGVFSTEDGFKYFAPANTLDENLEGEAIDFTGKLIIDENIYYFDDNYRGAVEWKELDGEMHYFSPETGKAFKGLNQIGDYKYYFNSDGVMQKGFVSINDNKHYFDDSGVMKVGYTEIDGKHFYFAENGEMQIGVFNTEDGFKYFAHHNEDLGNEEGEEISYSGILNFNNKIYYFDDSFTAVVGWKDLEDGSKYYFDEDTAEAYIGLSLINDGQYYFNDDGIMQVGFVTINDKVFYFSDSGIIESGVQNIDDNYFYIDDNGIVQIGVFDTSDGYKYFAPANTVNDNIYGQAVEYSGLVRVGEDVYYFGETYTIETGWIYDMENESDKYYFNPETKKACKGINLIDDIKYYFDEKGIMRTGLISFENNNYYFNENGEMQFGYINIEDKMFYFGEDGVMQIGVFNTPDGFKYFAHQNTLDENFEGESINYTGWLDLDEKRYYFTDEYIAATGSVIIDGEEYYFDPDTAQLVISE
Assay: BLI (Octet Red96), antibody on Protein A sensor, toxin in solution
endpoint name: koff (s⁻¹)
Give a bare numeral; the unit s⁻¹ is implied.

Give the reported koff for this binder. B6 antibody (antibody, V domains shown) VH: EVQLVESGGGLVQPGGSLRLSCAASGFTFTTSTMNWVRQAPGKGLEWVSYITRTSTVIYYADSVKGRFTISRDNAKNSLYLQMSSLRAEDTAVYYCARGVRDIGGNGFDYWGQGTLVTVSS VL: EIVLTQSPGTLSLSPGERATLSCRASQSVTSSYLAWYQQKTGQAPRLLIYGASSRATGIPDRFSGSGSGTDFTLTIARLEPEDFAVYYCQQYGSSPPYTFGQGTKLEIKR 5.3e-07

Quick one: give measured koff for B3 antibody (antibody, V domains shown) VH: EVQLVESGGGLVQPGGSLRLSCSASGFTFRSYWMHWVRQVPGKGLVWVSCINKEGSSTTYADSVKGRFTISRDNAKNTLYLQMNSLRADDTAVYYCLRGYDVDYWGQGTLVTVSS VL: QAVLTQPSSLSASPGASVSLTCTLRSGVNVGSYRIYWYQQKPGSPPRYLLRYKSGLDKHQGSGVPSRFSGSKDDSANAGILFISGLQSENDADYYCLIWHNSAVVFGGGTKLTVLG 9.4e-05

Give reported koff value for B1 antibody (antibody, V domains shown) VH: EVQLVESGGGLVQPGGSLRLSCAASGFTFRSYWMHWVRQVPGKGLVWVSCINKEGSSTTYADSVKGRFTISRDNAKNTLYLEMNSLRADDTAVYYCLRGYDVDYWGQGTLVTVSS VL: QAVLTQPSSLSASPGASVSLTCTLRSGINVGTYRIYWYQQKPGSPPRYLLRYKSGLDKHQGSGVPSRFSGSKDDSANAGILFISGLQSEDEADYYCLIWHSSAVVFGGGTKLTVLG 2.79e-05

Please supply the value of reported koff for the item B4 antibody (antibody, V domains shown) VH: EVQLVESGGGLVKPGGSLRVSCAASGFTFSSYSMNWIRQAPGKGLEWVSSISSNSSYIYYADSVKGRFTISRDNAKNSLYLQMNSLRAEDTAVYYCARDRDYSNYLTAWGQGTLVTVSS VL: QSVLTQPPSVSGAPGQRVTISCTGSSSNIGAGYDVHWYRQLPGTAPKLLIYGKNNRPSGVPNRFSGSKSGTSASLAITGLQAEDEADYYCQSYDSSLSGSVFGGGTKLTVLG 6.44e-05
